Listed next: entries and their corresponding inhibition at 1 µM.
- Test system: polymorphoneucleocyte (PMN)
- Assay overview: Extracellular Matrix (ECM) degradation assay
- Type: cell-based
- Condition description: 1 uM inhibitor; PMN's stimulated with opsonized zymosan; 4 hr at 37° C.

| Compound | inhibition at 1 µM, % |
| --- | --- |
| Cc1cccc(Cc2nnc(C(=O)[C@@H](NC(=O)CN3C(=O)N(Cc4ccccc4)C(=O)[C@H]3Cc3ccccc3)C(C)C)o2)c1 [CE2151] | 14.2 |
| Cc1cccc(Cc2nnc(C(=O)[C@@H](NC(=O)CN3C(=O)CNC3=O)C(C)C)o2)c1 [CE2238] | 10.1 |
| Cc1cccc(Cc2nnc(C(=O)C(NC(=O)CN3C(=O)C(c4ccccc4)N(C)C3=O)C(C)C)o2)c1 (stereo not drawn) [CE2179] | 48.8 |
| Cc1cccc(Cc2nnc(C(=O)[C@@H](NC(=O)CN3C(=O)CN=C(C4CCNCC4)c4ccccc43)C(C)C)o2)c1 [CE2233] | 54.7 |
| Cc1cccc(Cc2nnc(C(=O)[C@@H](NC(=O)[C@@H]3CCCN3C(=O)[C@@H](NS(C)(=O)=O)C(C)C)C(C)C)o2)c1 [CE2163] | 54.7 |
| CC(C)[C@H](NC(=O)[C@@H]1CCCN1C(=O)[C@@H](NC(=O)OCc1ccccc1)C(C)C)C(=O)c1nnc(Cc2ccc3c(c2)OCO3)o1 [CE2177] | 74.2 |
| Cc1cccc(Cc2nnc(C(=O)[C@@H](NC(=O)Cn3c(-c4ccc(F)cc4)ncc(N)c3=O)C(C)C)o2)c1 [CE2101] | 44.6 |
| Cc1cccc(Cc2nnc(C(=O)[C@@H](NC(=O)Cn3c(-c4ccccn4)nc4ccccc43)C(C)C)o2)c1 [CE2234] | 39.7 |
| CC1=NC(N)C(=O)N(CC(=O)NC(C(=O)c2nnc(Cc3cccc(C)c3)o2)C(C)C)c2ccccc21 (stereo not drawn) [CE2226] | 27.6 |
| Cc1cccc(Cc2nnc(C(=O)[C@@H](NC(=O)CN3C(=O)N[C@@H](Cc4ccccc4)C3=O)C(C)C)o2)c1 [CE2154] | 54.6 |
| Cc1cccc(Cc2nnc(C(=O)C(NC(=O)CN3C(=O)NC(c4ccccc4)C3=O)C(C)C)o2)c1 (stereo not drawn) [CE2149] | 51.3 |
| Cc1cccc(Cc2nnc(C(=O)C(NC(=O)C3Cc4cccc5c4N3C(=O)C(N)CC5)C(C)C)o2)c1 (stereo not drawn) [CE2130] | 16.3 |

----------
- Target of assay: human neutrophil elastase (HNE) (Homo sapiens, UniProt P08246)
- Assay overview: HNE Ki of CE compounds, tested as described in WO 96/16080
- Type: biochemical
- Condition description: read-out: HNE Ki

| Compound | Ki / pM |
| --- | --- |
| Cc1cccc(Cc2nnc(C(=O)[C@@H](NC(=O)CN3CC(=O)N(C(=O)c4ccccc4)CC3=O)C(C)C)o2)c1 [CE2138] | 294000 |
| CC(C)[C@H](NC(=O)[C@@H]1CCCN1C(=O)[C@@H](NC(=O)OCc1ccccc1)C(C)C)C(=O)c1noc(Cc2cccc3ccccc23)n1 [CE2077] | 150 |
| COC(=O)N[C@H](C(=O)N1CCC[C@H]1C(=O)N[C@H](C(=O)c1nnc(Cc2cccc(C)c2)o1)C(C)C)C(C)C [CE2213] | 140 |

----------
- Target of assay: human neutrophil elastase (HNE) (Homo sapiens)
- Sequence (P08246 30-267): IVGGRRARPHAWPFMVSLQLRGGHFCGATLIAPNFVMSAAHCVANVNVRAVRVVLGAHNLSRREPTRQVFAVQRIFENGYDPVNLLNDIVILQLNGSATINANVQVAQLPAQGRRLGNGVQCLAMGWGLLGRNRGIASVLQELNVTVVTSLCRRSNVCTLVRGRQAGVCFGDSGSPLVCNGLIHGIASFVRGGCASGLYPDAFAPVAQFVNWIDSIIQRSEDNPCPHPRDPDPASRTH
- Assay overview: HNE Ki of CE compounds, tested as described in WO 96/16080
- Assay type: biochemical
- Condition description: read-out: HNE Ki
pKi: −log10 of the molar value.
Mark satisfied for reported pKi of 8 or greater; mark not satisfied for anything smaller.

| Compound | Answer label |
| --- | --- |
| Cc1cccc(Cc2nnc(C(=O)[C@@H](NC(=O)CN3C(=O)N(Cc4ccccc4)C(=O)[C@H]3Cc3ccccc3)C(C)C)o2)c1 | not satisfied |
| Cc1cccc(Cc2nnc(C(=O)[C@@H](NC(=O)CN3C(=O)CSC3Cc3ccccc3)C(C)C)o2)c1 (stereo partly shown) | not satisfied |
| Cc1cccc(Cc2nnc(C(=O)[C@@H](NC(=O)[C@@H]3CCCN3C(=O)[C@@H](NC(=O)N3CCOCC3)C(C)C)C(C)C)o2)c1 | satisfied |
| Cc1cccc(Cc2nnc(C(=O)[C@@H](NC(=O)CN3C(=O)NC(c4ccc(N(C)C)cc4)C3=O)C(C)C)o2)c1 (stereo partly shown) | satisfied |

----------
Listed next: entries and their corresponding concentration at 3 h.
- Assay overview: Blood level screening after oral dose
- Type: in vivo, Sprague-Dawley rats
- Condition description: male, Sprague-Dawley, plasma; rat, oral gavage 10 mg/kg, 3 hr; read-out: Plasma Levels (μM) 3 hr
- Description: The inhibitors were dissolved or suspended in polyethylene glycol (PEG), PEG-400 or PEG:H2O:EtOH at a concentration of 10 mg/ml. Unfasted male Sprague-Dawley rats were given an oral dose of this solution by gavage. […] Depending on the inhibitor, one of four organics (ethyl acetate, toluene, isopropyl ether or methyl t-butyl ether) was used to extract the compound from the plasma. Inhibitor concentrations were measured by HPLC or LC/MS analysis.

| Chemical structure | concentration at 3 h / µM |
| --- | --- |
| Cc1cccc(Cc2nnc(C(=O)[C@@H](NC(=O)CN3C(=O)CN=C(c4ccc(C(F)(F)F)cc4)c4ccccc43)C(C)C)o2)c1 | 1.8 |
| Cc1cccc(Cc2nnc(C(=O)[C@@H](NC(=O)CN3C(=O)CN=C(c4ccccc4)c4ccccc43)C(C)C)o2)c1 | 3.81 |
| Cc1cccc(Cc2nnc(C(=O)[C@@H](NC(=O)CN3C(=O)NC4(Cc5ccccc5C4)C3=O)C(C)C)o2)c1 | 0.246 |
| Cc1cccc(Cc2nnc(C(=O)[C@@H](NC(=O)CN3C(=O)CNC3=O)C(C)C)o2)c1 | 1.74 |

----------
- Assay overview: Blood level screening after oral dose
- Assay type: in vivo, Sprague-Dawley rats
- Condition description: rat, oral gavage 10 mg/kg, 1 hr
Listed next: entries and their corresponding Plasma Levels (μM) 1 hr.

| Chemical structure | Unit of measurement | Plasma Levels (μM) 1 hr |
| --- | --- | --- |
| Cc1cccc(Cc2nnc(C(=O)[C@@H](NC(=O)CN3C(=O)NC4(CCCCC4)C3=O)C(C)C)o2)c1 | µM | 0.598 |
| Cc1cccc(Cc2nnc(C(=O)[C@@H](NC(=O)CN3C(=O)CN=C(c4ccccc4N(C)C)c4ccccc43)C(C)C)o2)c1 | µM | 1.624 |
| Cc1cccc(Cc2nnc(C(=O)[C@@H](NC(=O)CN3C(=O)N[C@H](CC(=O)N(C)C)C3=O)C(C)C)o2)c1 | µM | 1.017 |
| COC(=O)CCC[C@H]1NC(=O)N(CC(=O)N[C@H](C(=O)c2nnc(Cc3cccc(C)c3)o2)C(C)C)C1=O | µM | 1.179 |
| Cc1cccc(Cc2nnc(C(=O)[C@@H](NC(=O)Cn3c(-c4ccc(F)cc4)ccc(N)c3=O)C(C)C)o2)c1 | µM | 1.63 |
| Cc1cccc(Cc2nnc(C(=O)[C@@H](NC(=O)CN3C(=O)N[C@H](C(C)C)C3=O)C(C)C)o2)c1 | µM | 1.86 |
| Cc1cccc(Cc2nnc(C(=O)[C@@H](NC(=O)CN3C(=O)NC(c4ccccc4)(c4ccccc4)C3=O)C(C)C)o2)c1 | µM | 0.114 |

----------
- Assay overview: Blood level screening after oral dose
- Type: in vivo, Sprague-Dawley rats
- Condition description: rat, oral gavage 10 mg/kg, 3 hr
- Protocol: The inhibitors were dissolved or suspended in polyethylene glycol (PEG), PEG-400 or PEG:H2O:EtOH at a concentration of 10 mg/ml. Unfasted male Sprague-Dawley rats were given an oral dose of this solution by gavage. […] Depending on the inhibitor, one of four organics (ethyl acetate, toluene, isopropyl ether or methyl t-butyl ether) was used to extract the compound from the plasma. Inhibitor concentrations were measured by HPLC or LC/MS analysis.
Mark label 1 for reported Plasma Levels (μM) 3 hr of 0.6 µM or greater; mark label 0 for anything smaller.

| Compound | Answer label |
| --- | --- |
| Cc1cccc(Cc2nnc(C(=O)[C@@H](NC(=O)CN3C(=O)N[C@H](Cc4c[nH]c5ccccc45)C3=O)C(C)C)o2)c1 | label 1 |
| Cc1cccc(Cc2nnc(C(=O)[C@@H](NC(=O)Cn3c(-c4ccc(F)cc4)ccc(N)c3=O)C(C)C)o2)c1 | label 1 |
| Cc1cccc(Cc2nnc(C(=O)[C@@H](NC(=O)CN3C(=O)NC(c4ccc(N(C)C)cc4)C3=O)C(C)C)o2)c1 (stereo partly shown) | label 0 |
| Cc1cccc(Cc2nnc(C(=O)[C@@H](NC(=O)CN3C(=O)NC(C)(C)C3=O)C(C)C)o2)c1 | label 1 |
| CC(C)[C@H](NC(=O)CN1C(=O)NC(c2ccccc2)(c2ccccc2)C1=O)C(=O)c1nnc(Cc2ccc3c(c2)OCO3)o1 | label 1 |
| Cc1cccc(Cc2nnc(C(=O)[C@@H](NC(=O)CN3C(=O)N[C@H](CC(=O)N(C)C)C3=O)C(C)C)o2)c1 | label 0 |
| Cc1cccc(Cc2nnc(C(=O)[C@@H](NC(=O)CN3C(=O)NC(c4ccccc4)(c4ccccc4)C3=O)C(C)C)o2)c1 | label 0 |
